IC50 by entry:
# system.name: Glycogen synthase kinase-3 beta (Homo sapiens, UniProt P49841)
# Sequence (P49841 whole entry): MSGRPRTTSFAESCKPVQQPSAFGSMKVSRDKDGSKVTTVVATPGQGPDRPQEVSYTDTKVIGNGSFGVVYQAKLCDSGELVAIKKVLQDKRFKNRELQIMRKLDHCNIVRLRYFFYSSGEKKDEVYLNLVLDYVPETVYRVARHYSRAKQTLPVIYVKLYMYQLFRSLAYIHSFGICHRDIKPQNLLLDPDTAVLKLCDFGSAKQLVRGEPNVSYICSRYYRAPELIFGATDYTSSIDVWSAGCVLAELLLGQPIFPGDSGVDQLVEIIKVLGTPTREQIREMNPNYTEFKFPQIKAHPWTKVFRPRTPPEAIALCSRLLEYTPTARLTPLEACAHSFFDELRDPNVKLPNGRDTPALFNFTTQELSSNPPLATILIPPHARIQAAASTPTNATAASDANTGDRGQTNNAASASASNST

Examples with their reported IC50 follow.
CCC1(c2cccc(N(c3cccnc3)C3CC3)c2)C2=CN=NC2NC2=C1C(=O)CC(C)(C)C2 (stereo not drawn) [US20250313563, Compound 913274]: < 100 nM
CC[C@]1(c2cccc(C(F)(F)F)c2)C2=C(N=NC2)NC2=C1C(=O)N(c1ccccc1)C2 [US20250313563, Compound 945376]: > 5000 nM

Continue with the next molecule.
Task: GET /values?readout=IC50&item= CC[C@@]1(c2cccc(-c3cnn(CCN4CCCC4)c3)c2)C2=CN=NC2NC2=C1C(=O)NC(C)(C)C2 (stereo partly drawn) [US20250313563, Compound 952022]
Result: 1000 to 5000 nM
